Data provenance is PubChem BioAssay AID540295.

# study-target: Melanocortin receptor 4 (Homo sapiens) (UniProt P32245)
# Sequence (P32245 whole entry, looked up): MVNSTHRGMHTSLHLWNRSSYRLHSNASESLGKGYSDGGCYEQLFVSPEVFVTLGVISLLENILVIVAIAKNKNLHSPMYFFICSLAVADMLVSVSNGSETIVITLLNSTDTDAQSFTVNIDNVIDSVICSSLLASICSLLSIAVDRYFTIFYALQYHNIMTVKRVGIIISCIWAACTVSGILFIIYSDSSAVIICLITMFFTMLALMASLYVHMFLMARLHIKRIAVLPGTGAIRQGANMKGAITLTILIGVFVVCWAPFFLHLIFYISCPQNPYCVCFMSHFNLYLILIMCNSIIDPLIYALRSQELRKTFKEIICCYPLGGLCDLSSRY
# assay-explanation: MC4R antagonists of cAMP signaling, primary screen, cell-based, TR-FRET, antagonist arm of biased-ligand search (AID 540295);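 further: 0% = Melanotan II alone and 100% = Melanotan II plus saturating MCL0020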
# measurement-conditions: MC4R-expressing cells, MTII-stimulated cAMP, LANCE TR-FRET; at 6.5 µM; hits give high values
Out of some 360,000 compounds screened, about 1,700 (0.47%) were called active. What follows is part of a selection rich in actives, with near analogues and random picks from the rest.
quantity: inhibition (%)

> print(dat)
                                    compound                              study.target    quantity  unit.label  endpoint.value
 1  Cc1ccc(OCC(=O)Nc2ccc(N3CCN(C(=O)c4ccco4)CC3)cc2)c(C)c1  Melanocortin receptor 4 (Homo sapiens) (UniProt P32245)  inhibition           %            12.1
 2  COc1ccc(CCNC(=O)c2c(C)nn(-c3ccccc3)c2Cl)cc1  Melanocortin receptor 4 (Homo sapiens) (UniProt P32245)  inhibition           %            13.4
 3     O=C(COC(=O)c1cnc(Cl)c(Cl)c1)NCc1ccco1  Melanocortin receptor 4 (Homo sapiens) (UniProt P32245)  inhibition           %            10.1
 4                  O=C1CCC(=O)N(c2ccccc2)N1  Melanocortin receptor 4 (Homo sapiens) (UniProt P32245)  inhibition           %            22.5
 5  CCc1nc2c(OCCOc3ccccc3)cccn2c1N(C)C(=O)c1cccs1  Melanocortin receptor 4 (Homo sapiens) (UniProt P32245)  inhibition           %            -6.4
 6  CN(CC(=O)NCCc1ccccn1)S(=O)(=O)c1ccc(Cl)cc1  Melanocortin receptor 4 (Homo sapiens) (UniProt P32245)  inhibition           %            30.3
 7  Cc1ccc(C)c(OCCC(=O)OCC(=O)c2ccc3c(c2)NC(=O)CO3)c1  Melanocortin receptor 4 (Homo sapiens) (UniProt P32245)  inhibition           %            2.21
 8  O=C(c1ccc(Cl)c(S(=O)(=O)N2CCCCCC2)c1)N1CCN(c2ccc(O)cc2)CC1  Melanocortin receptor 4 (Homo sapiens) (UniProt P32245)  inhibition           %           -1.58
 9        O=C(Nc1nn(Cc2ccccc2F)cc1Br)c1cccs1  Melanocortin receptor 4 (Homo sapiens) (UniProt P32245)  inhibition           %            11.3
10         COc1ccc(/C=N/n2c(C)cc(C)cc2=O)cc1  Melanocortin receptor 4 (Homo sapiens) (UniProt P32245)  inhibition           %            5.08
11  CCOc1ccc(N(C(=O)c2snc(C(N)=O)c2N)C(C(=O)NCC2CCCO2)c2c[nH]c3ccccc23)cc1 (configuration not stated)  Melanocortin receptor 4 (Homo sapiens) (UniProt P32245)  inhibition           %            12.3
12  CC1(C)CC(N2CCN(C(c3ccccc3)c3ccccc3)CC2)=CC(=[N+]2CCCCC2)C1  Melanocortin receptor 4 (Homo sapiens) (UniProt P32245)  inhibition           %            5.45
13                     COc1ccnc(Oc2ccccc2)n1  Melanocortin receptor 4 (Homo sapiens) (UniProt P32245)  inhibition           %             0.1
14  CN(CC(=O)NCC(c1ccccc1)N1CCCC1)S(=O)(=O)c1ccc(Cl)cc1 (configuration not stated)  Melanocortin receptor 4 (Homo sapiens) (UniProt P32245)  inhibition           %           -2.78
15  CN(C)/C(CN1CCCCC1)=C1\N=C(c2ccccc2)OC1=O  Melanocortin receptor 4 (Homo sapiens) (UniProt P32245)  inhibition           %            7.27
16  CCCS(=O)(=O)NC(=O)C1(C)CCCN(C(=O)c2cc(C)on2)C1 (configuration not stated)  Melanocortin receptor 4 (Homo sapiens) (UniProt P32245)  inhibition           %            10.6
17  COc1ccc(OC)c(S(=O)(=O)n2c([N+](=O)[O-])cnc2C)c1  Melanocortin receptor 4 (Homo sapiens) (UniProt P32245)  inhibition           %            0.16
18  Cc1ccc(N(C(=O)c2snc(C(N)=O)c2N)C(C(=O)NCC2CCCO2)c2c[nH]c3ccccc23)cc1 (configuration not stated)  Melanocortin receptor 4 (Homo sapiens) (UniProt P32245)  inhibition           %            21.4
19  Cc1ccc(S(=O)(=O)N(CC(=O)NCc2ccco2)c2ccccc2C)cc1  Melanocortin receptor 4 (Homo sapiens) (UniProt P32245)  inhibition           %            12.4
20  COC(=O)c1sc(NC(=O)COC(=O)C2CCC2)c(C(=O)OC)c1C  Melanocortin receptor 4 (Homo sapiens) (UniProt P32245)  inhibition           %            3.01
21  Cc1ccc(C)c(S(=O)(=O)N2CCN(CC(=O)Nc3ccc([N+](=O)[O-])cc3)CC2)c1  Melanocortin receptor 4 (Homo sapiens) (UniProt P32245)  inhibition           %            34.2
22    COc1ccc(Oc2c(Cl)cnn(-c3ccccc3)c2=O)cc1  Melanocortin receptor 4 (Homo sapiens) (UniProt P32245)  inhibition           %            54.6
23           COc1ccc2oc(=O)cc(CN3CCOCC3)c2c1  Melanocortin receptor 4 (Homo sapiens) (UniProt P32245)  inhibition           %            5.75
24  CC(=O)c1cccc(NC(=O)C2CCCN(S(=O)(=O)c3cccc4nonc34)C2)c1 (configuration not stated)  Melanocortin receptor 4 (Homo sapiens) (UniProt P32245)  inhibition           %            0.67
25   CCOC(=O)N1CCN(Cc2nnc(-c3ccccc3Cl)o2)CC1  Melanocortin receptor 4 (Homo sapiens) (UniProt P32245)  inhibition           %            2.09
26         O=NN(CCCl)C(=O)NCCc1cccc[n+]1[O-]  Melanocortin receptor 4 (Homo sapiens) (UniProt P32245)  inhibition           %            7.72
27  C=CCn1c(SCC(=O)c2c(N)n(C)c(=O)n(C)c2=O)nc2sc(CC)cc2c1=O  Melanocortin receptor 4 (Homo sapiens) (UniProt P32245)  inhibition           %            8.69
